Just for reference, patent US20230374116A1 is where these values come from.

molecular target: SARS-CoV-2 receptor-binding domain (amino acids 330-532), prototypical Wuhan/Victoria (SARS-CoV-2 (Wuhan/Victoria), UniProt P0DTC2 330-532); assay: SPR, RBD binding kinetics
Endpoint label: kon (M⁻¹ s⁻¹)
Could you give me the number in M⁻¹ s⁻¹? Just the number is fine.

Prompt: # get_value(readout='kon', item= F2-SUMO-C5-Fc (Fc fusion, also called F2-GSGSGS-SUMO-GSGSGS-C5) QVQLVESGGGLVQAGGSLRLACIASGRTFHSYVMAWFRQAPGKEREFVAAISWSSTPTYYGESVKGRFTISRDNAKNTVYLQMNRLKPEDTAVYFCAADRGESYYYTRPTEYEFWGQGTQVTVSSGSGSGSDSEVNQEAKPEVKPEVKPETHINLKVSDGSSEIFFKIKKTTPLRRLMEAFAKRQGKEMDSLRFLYDGIRIQADQTPEDLDMEDNDIIEAHREQIGSGSGSQVQLVESGGGSVQAGGSLTLSCVASGVTLGRHAIGWFRQAPGKERERVSCIRTFDGITSYVESTKGRFTISSNNAMNTVYLQMNSLKPEDTAVYFCALGVTAACSDNPYFWGQGTQVTVSS )
Response: 2.3e+07
